Assignment: determine reported growth for the given compounds.
Test system: MCF7 breast
method: NCI-60 one-dose screen, 48 h (100 = growth as untreated, 0 = no growth, -100 = all killed)
assay_setup: 10 µM unless noted
The panel holds about 83,000 compounds, 20% with a hit somewhere; the sample as a whole holds those more often.
The response must be a number in % with no trailing unit.

Endpoint output: growth of COc1ccc(C2CC(c3ccccc3)=NN2c2nc(C)c(C(C)=O)s2)cc1 (stereo not drawn) . Value?
94.7

Same question, "O=S(=O)(NCCNc1cc(-c2c(-c3cccc(O)c3)nc3sccn23)ccn1)c1ccc(Cl)cc1" this time
47.8

Subsequent entry: "c1ccc2c(c1)nc(-n1ccnc1)c1nc3ccccc3n12"
62.5

Then this compound: "O=S(=O)(Nc1ccsc1-c1nc(-c2ccccc2)no1)c1cc(Cl)cc(Cl)c1"
92.4

Now consider "CN(C)CCN1C(=O)c2cccc3c(-c4ccc(-c5nc6c7ccccc7c7ccccc7c6[nH]5)cc4)ccc(c23)C1=O" and answer again.
36.2

Field entry: "C#C[C@]1(O)CC[C@H]2[C@@H]3CC=C4c5sc(N=C(N)N)nc5CC[C@]4(C)[C@H]3CC[C@@]21C"
0.374

Subsequent entry: "CCCCN(CCCC)CCCn1c(=O)c2sc3ncccc3c2n2nnc(-c3ccccc3)c12"
93.2

What do we get for "CCCCCCCCn1cc(C2=C(c3coc4ccc(OC)cc34)C(=O)NC2=O)c2ccccc21" ?
91.8

Also need "COc1cc2c(c(OC)c1OC)C(=O)/C(=C/c1cc(C)c(O)c(C)c1)S2" , thanks.
21.7

// same read-out, input: "Cl.Fc1c[c-]c(-c2ccccn2)c(F)c1.[Pt].c1ccc(P(c2ccccc2)C([PH+](c2ccccc2)c2ccccc2)[PH+](c2ccccc2)c2ccccc2)cc1"
4.74

Then what about the compound COc1ccc(C2CC(c3ccc4ccccc4c3)=NN2c2nc(O)c(C3=c4cc(Cl)ccc4=NC3=O)s2)cc1 (stereo not drawn) ?
-22.4

Then what about the compound CC1=NN(c2cccc(Cl)c2)C(=O)/C1=C\c1cn(CC(O)CN2CCCCC2)c2ccccc12 (stereo not drawn) ?
41.1

Follow-up item: "Nc1nc(Nc2ccc(Cl)cc2)nn1S(=O)(=O)c1ccc(-c2ccc(F)cc2)cc1"
58.2

Same lookup for C=C1c2c(C)nn(-c3ccc(S(N)(=O)=O)cc3)c2N(C)C23CC1C1(C)c4c(C)nn(-c5ccc(S(N)(=O)=O)cc5)c4N(C)C(C)(CC12)C3 (stereo not drawn) , please.
15.9

Note, next up: "O=[N+]([O-])c1ccc2[nH]cc(-c3c4ccsc4cc4[nH]c5ccc([N+](=O)[O-])cc5c34)c2c1"
9.14

Record: CNC(=O)NCC1OC(n2cnc3c(NC(=O)Nc4ccccc4)ncnc32)C2OC(C)(C)OC12 (stereo not drawn)
85.4

Could you do the same for "NC(=S)N/N=C/C(=O)O" , please?
11.7

Moving on to "O=S(=O)(NCCNc1cc(-c2c(-c3cccc(O)c3)nc3sccn23)ccn1)c1ccc(Br)cc1"
37.4
